# Experimental System: HCV NS3 helicase (WT) (Hepatitis C virus (subgenomic replicon …, UniProt Q9WMX2 1027-1657))
# Sequence (Q9WMX2 1027-1657): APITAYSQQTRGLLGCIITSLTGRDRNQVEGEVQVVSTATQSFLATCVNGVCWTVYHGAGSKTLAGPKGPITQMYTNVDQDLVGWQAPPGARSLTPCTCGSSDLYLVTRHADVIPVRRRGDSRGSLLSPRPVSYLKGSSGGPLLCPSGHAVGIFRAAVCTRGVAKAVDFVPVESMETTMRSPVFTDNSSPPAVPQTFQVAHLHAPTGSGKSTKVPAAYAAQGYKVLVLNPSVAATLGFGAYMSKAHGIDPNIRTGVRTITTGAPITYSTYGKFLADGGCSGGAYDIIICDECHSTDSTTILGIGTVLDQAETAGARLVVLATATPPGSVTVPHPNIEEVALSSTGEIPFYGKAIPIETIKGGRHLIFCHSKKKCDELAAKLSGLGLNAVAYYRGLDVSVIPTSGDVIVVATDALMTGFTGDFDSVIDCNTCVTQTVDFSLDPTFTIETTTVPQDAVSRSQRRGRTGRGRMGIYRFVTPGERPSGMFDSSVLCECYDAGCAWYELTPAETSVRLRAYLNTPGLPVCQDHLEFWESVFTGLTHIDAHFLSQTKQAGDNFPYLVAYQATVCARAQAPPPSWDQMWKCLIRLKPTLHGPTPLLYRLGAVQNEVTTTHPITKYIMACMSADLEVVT
# Test Name: competition
Measurement Label: Ki
# do not omit the unit; it follows the number

Task: Value lookup for Ki; key = ds9 (competitor duplex) (dsRNA) RNA 1: GCCGCCCGG RNA 2: CCGGGCGGC
Output: 90 nM

Values compiled from paper PMC2831328.
